# pIC50 measurements, system: GST-tagged Tankyrase-1 (1023-1327 aa) (Homo sapiens)
# Sequence (O95271 1023-1327): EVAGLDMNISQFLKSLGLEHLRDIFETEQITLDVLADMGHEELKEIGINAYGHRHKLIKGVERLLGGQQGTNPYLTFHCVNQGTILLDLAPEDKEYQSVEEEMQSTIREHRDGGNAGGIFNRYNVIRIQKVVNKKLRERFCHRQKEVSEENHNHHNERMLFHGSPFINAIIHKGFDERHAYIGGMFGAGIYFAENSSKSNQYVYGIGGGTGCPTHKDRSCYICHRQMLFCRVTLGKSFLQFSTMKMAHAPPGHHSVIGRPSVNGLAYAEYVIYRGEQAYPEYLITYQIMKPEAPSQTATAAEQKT
pIC50: −log10 of the molar value.

Entry `Cc1ccc2c(=O)[nH]c(-c3ccc(C(C)(C)O)cc3)nn12` ; pIC50 = > 6.52

Entry `CC(C)(O)c1ccc(-c2nn3cc(F)cc3c(=O)[nH]2)cc1` ; pIC50 = > 6.52

Entry `CC(C)(O)c1ccc(-c2nn3c(C(F)(F)F)ccc3c(=O)[nH]2)cc1` ; pIC50 = 5.52 to 6.52

Entry `CC(C)(OCCO)c1ccc(-c2nn3cccc3c(=O)[nH]2)cc1` ; pIC50 = > 6.52

Entry `CC(C)(N)c1ccc(-c2nn3cccc3c(=O)[nH]2)cc1` ; pIC50 = 5.52 to 6.52

Entry `Cc1cc2c(=O)[nH]c(-c3ccc(-c4cnn(C)c4)cc3)nn2c1` ; pIC50 = > 6.52

Entry `COC(=O)c1ccc(-c2nn3cccc3c(=O)[nH]2)cc1` ; pIC50 = > 6.52

Entry `CC(C)(O)c1ccc(-c2nn3cc(Cl)cc3c(=O)[nH]2)cc1` ; pIC50 = > 6.52

Entry `Cn1cc(-c2ccc(-c3nn4cccc4c(=O)[nH]3)cc2)cn1` ; pIC50 = > 6.52

Entry `Cc1cc2c(=O)[nH]c(-c3ccc(C(C)(C)O)cc3)nn2n1` ; pIC50 = 5.52 to 6.52

Entry `CCC(O)(CC)c1ccc(-c2nn3cccc3c(=O)[nH]2)cc1` ; pIC50 = > 6.52

Entry `Cc1cc2c(=O)[nH]c(-c3ccc(C(C)(C)O)cc3)nn2c1` ; pIC50 = > 6.52

Entry `CC(C)(C)c1ccc(-c2nn3cccc3c(=O)[nH]2)cc1` ; pIC50 = > 6.52

Entry `CC(C)(O)c1ccc(-c2nn3cccc3c(=O)[nH]2)cc1` ; pIC50 = > 6.52

Entry `O=c1[nH]c(-c2ccc(C3(O)CCCC3)cc2)nn2cccc12` ; pIC50 = > 6.52

Entry `Cc1ccc(-c2nn3cccc3c(=O)[nH]2)cc1` ; pIC50 = > 6.52

====

pIC50: −log10 of the molar value.
reportedEndpoint: pIC50

GST-tagged Tankyrase-2 (873-1166 aa) (Homo sapiens) pIC50 of `Cc1cc2c(=O)[nH]c(-c3ccc(C(C)(C)O)cc3)nn2c1` is > 6.52

GST-tagged Tankyrase-2 (873-1166 aa) (Homo sapiens) pIC50 of `O=c1[nH]c(-c2ccc(Br)cc2)nn2cccc12` is > 6.52

GST-tagged Tankyrase-2 (873-1166 aa) (Homo sapiens) pIC50 of `O=c1[nH]c(-c2ccc(C3(O)CCCC3)cc2)nn2cccc12` is > 6.52

GST-tagged Tankyrase-2 (873-1166 aa) (Homo sapiens) pIC50 of `CC(C)(O)c1ccc(-c2nn3cc(Cl)cc3c(=O)[nH]2)cc1` is > 6.52

GST-tagged Tankyrase-2 (873-1166 aa) (Homo sapiens) pIC50 of `CC(C)(C)c1ccc(-c2nn3cccc3c(=O)[nH]2)cc1` is 5.52 to 6.52

GST-tagged Tankyrase-2 (873-1166 aa) (Homo sapiens) pIC50 of `Cc1ccc2c(=O)[nH]c(-c3ccc(C(C)(C)O)cc3)nn12` is > 6.52

GST-tagged Tankyrase-2 (873-1166 aa) (Homo sapiens) pIC50 of `Cc1cc2c(=O)[nH]c(-c3ccc(-c4cnn(C)c4)cc3)nn2c1` is > 6.52

GST-tagged Tankyrase-2 (873-1166 aa) (Homo sapiens) pIC50 of `Cc1cc2c(=O)[nH]c(-c3ccc(C(C)(C)O)cc3)nn2n1` is 5.52 to 6.52

GST-tagged Tankyrase-2 (873-1166 aa) (Homo sapiens) pIC50 of `CC(C)(OCCO)c1ccc(-c2nn3cccc3c(=O)[nH]2)cc1` is > 6.52

GST-tagged Tankyrase-2 (873-1166 aa) (Homo sapiens) pIC50 of `CCC(O)(CC)c1ccc(-c2nn3cccc3c(=O)[nH]2)cc1` is > 6.52

GST-tagged Tankyrase-2 (873-1166 aa) (Homo sapiens) pIC50 of `COC(=O)c1ccc(-c2nn3cccc3c(=O)[nH]2)cc1` is > 6.52

GST-tagged Tankyrase-2 (873-1166 aa) (Homo sapiens) pIC50 of `CC(C)(O)c1ccc(-c2nn3cc(F)cc3c(=O)[nH]2)cc1` is > 6.52

GST-tagged Tankyrase-2 (873-1166 aa) (Homo sapiens) pIC50 of `Cn1cc(-c2ccc(-c3nn4cccc4c(=O)[nH]3)cc2)cn1` is 5.52 to 6.52

GST-tagged Tankyrase-2 (873-1166 aa) (Homo sapiens) pIC50 of `CC(C)(O)c1ccc(-c2nn3cccc3c(=O)[nH]2)cc1` is > 6.52

====

Record form. Attribute: IC50. Fill in for each entry.

UniProtKB P09874 IC50 of `CC(C)(O)c1ccc(-c2nn3cccc3c(=O)[nH]2)cc1` is 3 to 50 µM

UniProtKB P09874 IC50 of `O=c1[nH]c(-c2ccc(C3(O)CCCC3)cc2)nn2cccc12` is 3 to 50 µM

UniProtKB P09874 IC50 of `CCC(O)(CC)c1ccc(-c2nn3cccc3c(=O)[nH]2)cc1` is 3 to 50 µM

UniProtKB P09874 IC50 of `CC(C)(O)c1ccc(-c2nn3cc(F)cc3c(=O)[nH]2)cc1` is 0.3 to 3 µM

Values were extracted from patent US9174995B2.
